Biological target: Muscarinic acetylcholine receptor M1 (Rattus norvegicus) (UniProt P08482)
Sequence (P08482 whole entry, looked up): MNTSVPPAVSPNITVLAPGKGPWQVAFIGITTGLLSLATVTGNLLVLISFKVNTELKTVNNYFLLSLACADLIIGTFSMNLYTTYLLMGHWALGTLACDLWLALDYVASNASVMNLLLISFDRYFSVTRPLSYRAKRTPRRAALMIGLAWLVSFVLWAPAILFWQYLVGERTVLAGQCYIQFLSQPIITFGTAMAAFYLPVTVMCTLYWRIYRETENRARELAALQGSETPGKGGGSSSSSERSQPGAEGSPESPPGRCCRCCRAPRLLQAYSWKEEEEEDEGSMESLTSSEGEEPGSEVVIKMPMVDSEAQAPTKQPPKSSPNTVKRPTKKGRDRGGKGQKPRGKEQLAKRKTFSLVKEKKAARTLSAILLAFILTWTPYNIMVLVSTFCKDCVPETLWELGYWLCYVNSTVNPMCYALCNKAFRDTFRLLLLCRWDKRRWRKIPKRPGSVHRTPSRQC
Test: qHTS Assay for Antagonists of Acetylcholine Muscarinic M1 Receptor: Measurement of IP-One Response (AID 944); also: nearly all actives have a fitted effect of over 75% in size
Conditions: CHO-M1 cells, IP-One HTRF, antagonist mode; series mostly up to 46.1 µM
Inconclusive results are not listed. Activity calls are given as the source filed them. Calls follow the shape of the dose curve; as a rule, active = well fitted inhibition curve with a large enough effect; inconclusive = small, poorly fitted or top-dose-only effect; inactive = no such curve, though single readings can be large or run the other way.
// allowed return values: 1 (yes) = active, 0 (no) = inactive

Example results:
In [3]: df
Out[3]:
                               smiles_input  class_name
0  C[C@@]12CC[C@H]3[C@@H](CCC4=C(O)C(=O)CC[C@]43C)[C@H]1CCC2=O      0 (no)
1  O=C(O)[C@H]1[C@H](C(=O)O)[C@H]2CC[C@@H]1O2      0 (no)
2  CCNC(=O)[C@@H]1O[C@@H](n2cnc3c(N)ncnc32)[C@@H](O)[C@H]1O      0 (no)
3  C=CCN1CC[C@]23c4c5ccc(O)c4O[C@@H]2/C(=N/NC(=O)c2ccccc2)CC[C@@]3(O)[C@H]1C5      0 (no)
4  COc1ccc2c(c1O)-c1cccc3c1[C@H](C2)N(C)CC3      0 (no)

Task item: Would you mind telling me which call this test gave CCCN1CC[C@@H]2c3cc(O)ccc3CC[C@H]21 ?
Reply: 1 (yes)

Task item: Would you mind telling me which call this test gave Nc1ncnc2c1ncn2[C@@H]1O[C@@H](COP(=O)(O)CP(=O)(O)OP(=O)(O)O)[C@H](O)[C@@H]1O ?
Reply: 0 (no)

###

System: CP191
Experiment: qHTS profiling for inhibitors of Plasmodium falciparum proliferation (AID 504749); also: nearly all actives have a fitted effect of over 60% in size
Settings: P. falciparum in erythrocytes, SYBR Green DNA, 72 h; series mostly up to 28.7 µM
Inconclusive results are not listed. Active and inactive are the calls of the source. Calls come from the whole dose curve; as a rule, active = well fitted inhibition curve with a large enough effect; inconclusive = small, poorly fitted or top-dose-only effect; inactive = flat fitted curve, though single readings scatter.
// allowed return values: active, inactive

Example results:
molecule	class-name
C[C@@H](Cc1ccc(O)cc1)NC[C@@H](O)c1cc(O)cc(O)c1	inactive
O=C1C[C@@H]2OCC=C3CN4CC[C@]56c7ccccc7N1[C@@H]5[C@@H]2[C@H]3C[C@H]46 (tested in a mixture with another compound)	inactive
C[C@@H]1O[C@@H](O[C@H]2C[C@@H](O)[C@@]3(CO)[C@H]4[C@H](O)C[C@]5(C)[C@@H](C6=CC(=O)OC6)CC[C@]5(O)[C@H]4CC[C@@]3(O)C2)[C@@H](O)[C@H](O)[C@H]1O	inactive

Task item: Would you mind telling me which call this test gave C[N+]1(C)C2CC[C@H]1CC(OC(=O)[C@@H](CO)c1ccccc1)C2 (stereo not given in full) ?
Reply: inactive

Task item: Would you mind telling me which call this test gave C=C[C@@H]1CN2CC[C@H]1C[C@H]2[C@H](O)c1ccnc2ccccc12 ?
Reply: active

###

Assay: Cellular Toxicity (caspase-3) Mesangial (AID 660);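 also: combined caspase 3 and 7 activity read by Caspase-Glo luminescence; cells exposed to compound for 16 h before the caspase read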
Details: mesangial cells, normalized: DMSO 0%, 100 µM tamoxifen 100%; series mostly up to 91.7 µM
Calls of active or inactive are those of the source. Calls follow the shape of the dose curve; as a rule, active = well fitted activation curve with a large enough effect; inconclusive = small, poorly fitted or top-dose-only effect; inactive = flat fitted curve, though single readings scatter.
metric: outcome

Field: example entries. Status: answers known.
>>> print(df.to_string())
                                   molecule    result
0  BrCC(Br)C1CCC(Br)C(Br)C1 (stereo not drawn)  inactive
1                                 O=C(O)CCl  inactive
2                            Nc1cc(Cl)ccc1O  inactive
3                               CCOC(=O)CBr  inactive
4                                N#CC(Br)Br  inactive
5                 O=[N+]([O-])/C=C/c1ccccc1  inactive
6                      CN(C)c1ccc(N(C)C)cc1  inactive
7                                 C/C=C/C=O  inactive

Batch request: outcome for each of the following molecules.
1. C=CCc1cc(OC)c2c(c1)OCO2
2. Oc1cccc(Cl)c1Cl
3. CN(C)C(=O)Cl
4. COC(C)(C)C
5. O=[N+]([O-])c1ccc(Cl)c(Cl)c1Cl
6. COc1ccc(C=O)cc1
7. ClCc1ccccn1

Reply:
inactive
inactive
inactive
inactive
inactive
inactive
inactive

###

Kindly state activity change % (negative = inhibition) for each of the entries shown.
Target: Thyroid hormone receptor beta (Homo sapiens)
Test: qHTS assay for small molecule antagonists of thyroid hormone receptor beta signaling (AID 588547);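 also: cells stimulated with 0.4 nM T3 agonist during compound exposure; % is scaled to controls: 0 for no effect and ±100 for the full control effect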
Details: TR-UAS-bla HEK293, beta-lactamase ratio, antagonist mode, 18 h
Inconclusive results are not listed.
One number for each entry, in %.

Field: example entries. Status: answers known.
           molecule  result_number
0    CC(=O)CCC(C)=O             15
1  CC(C)OS(C)(=O)=O           8.49
2         C/C=C/C=O          -1.85

Batch request: activity change % (negative = inhibition) for each of the following molecules.
1. C=CCOCC1CO1 (configuration not stated)
2. CSSC
3. Nc1ccc(-c2ccc(N)cc2)cc1
4. Cc1cccc(N)c1C

Reply:
[1.27, -18.7, 12.4, 2.82]

###

Target: Cytochrome P450 1A2 (Homo sapiens) (UniProt P05177)
Sequence (P05177 whole entry, looked up): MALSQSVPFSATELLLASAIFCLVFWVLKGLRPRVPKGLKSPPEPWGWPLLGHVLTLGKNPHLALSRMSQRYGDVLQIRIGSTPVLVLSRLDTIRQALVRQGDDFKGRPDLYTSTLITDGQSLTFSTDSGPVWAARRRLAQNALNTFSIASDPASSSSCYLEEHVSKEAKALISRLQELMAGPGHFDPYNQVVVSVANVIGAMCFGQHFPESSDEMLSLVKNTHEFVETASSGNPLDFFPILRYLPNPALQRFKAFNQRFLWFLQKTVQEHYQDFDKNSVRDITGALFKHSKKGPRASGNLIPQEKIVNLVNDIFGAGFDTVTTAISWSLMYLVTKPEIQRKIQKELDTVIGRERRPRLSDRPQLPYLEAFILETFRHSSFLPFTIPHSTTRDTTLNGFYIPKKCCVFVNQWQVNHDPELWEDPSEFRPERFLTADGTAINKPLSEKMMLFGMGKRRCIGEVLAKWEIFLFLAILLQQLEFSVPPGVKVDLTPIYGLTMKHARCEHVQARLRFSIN
Test: p450-cyp1a2 (AID 410)
Conditions: recombinant CYP1A2, luciferin-ME demethylation, luminescence; series mostly up to 11.4 µM
Results filed as inconclusive are left out. Active and inactive are the calls of the source. Calls come from the whole dose curve.
// allowed return values: true = active, false = inactive

>>> df
            smiles_input  class_name
0  c1ccc(CCN2CCCCCC2)nc1       false

Task item: Would you mind telling me which call this test gave Cc1ccc(C2(c3ccc(C)c(O)c3C)CCN(C)CC2)c(C)c1O ?
Reply: true

Task item: Would you mind telling me which call this test gave C[N+]1(C)CCc2cc3c(cc2[C@@H]1[C@@H]1OC(=O)c2c1ccc1c2OCO1)OCO3 ?
Reply: false

###

Molecular target: Cytochrome P450 1A2 (Homo sapiens) (UniProt P05177)
Test: p450-cyp1a2 (AID 410)
Conditions: recombinant CYP1A2, luciferin-ME demethylation, luminescence; series mostly up to 11.4 µM
Records with an inconclusive call do not appear. The source made the active and inactive calls. Calls come from the whole dose curve.
// allowed return values: active, inactive

In [3]: df
Out[3]:
                           compound                              study_system  class_name
0  Oc1ccc(CCNCc2cc3c(cc2Br)OCO3)cc1  Cytochrome P450 1A2 (Homo sapiens) (UniProt P05177)      active
1         NC[C@H](O)c1cc(O)c(O)cc1F  Cytochrome P450 1A2 (Homo sapiens) (UniProt P05177)    inactive

Task item: Would you mind telling me which call this test gave CC[C@@H]1CN2CCc3cc(OC)c(OC)cc3[C@H]2C[C@@H]1C[C@@H]1NCCc2cc(O)c(OC)cc21 ?
Reply: inactive

###

Molecular target: Cytochrome P450 2C9 (Homo sapiens)
Assay: qHTS Assay for Inhibitors and Substrates of Cytochrome P450 2C9 (AID 883); also: nearly all actives have a fitted effect of over 60% in size
Details: recombinant CYP2C9, luciferin-H luminescence, 60 min; series mostly up to 57.1 µM
Inconclusive results are not listed. The source made the active and inactive calls. Calls come from the whole dose curve; as a rule, active = well fitted inhibition curve with a large enough effect; inconclusive = small, poorly fitted or top-dose-only effect; inactive = no such curve, though single readings can be large or run the other way.
// allowed return values: active, inactive

Example results:
                               smiles_input                        study_system  class_name
0  CC(C)[C@@]1(NC(=O)[C@H]2C[C@H]3c4cccc5[nH]cc(c45)C[C@@H]3N(C)C2)O[C@]2(O)[C@H]3CCCN3C(=O)[C@H](Cc3ccccc3)N2C1=O  Cytochrome P450 2C9 (Homo sapiens)      active
1  CSC([N-]/N=C/c1cccc(C)n1)=[S]=[Cu].CS[C@H]([S-])[N-]/N=C/c1cccc(C)n1  Cytochrome P450 2C9 (Homo sapiens)      active
2                  C[C@@H]1O[C@H]1P(=O)(O)O  Cytochrome P450 2C9 (Homo sapiens)    inactive
3  CC(=O)c1c(O)c(C)c(O)c(Cc2c(O)c3c(c(C(=O)/C=C\c4ccccc4)c2O)OC(C)(C)C=C3)c1O  Cytochrome P450 2C9 (Homo sapiens)      active
4  CC(=O)[C@@H]1CC[C@H]2[C@H]3CC[C@H]4C[C@@H](O)CC[C@]4(C)[C@@H]3CC[C@]12C  Cytochrome P450 2C9 (Homo sapiens)      active

Task item: Would you mind telling me which call this test gave N[C@H](Cn1cc(I)c(=O)[nH]c1=O)C(=O)O ?
Reply: inactive

Task item: Would you mind telling me which call this test gave C[C@H](Br)CN(C[C@H](C)Br)c1ccc2c(c1)Cc1ccccc1-2 ?
Reply: active

Task item: Would you mind telling me which call this test gave O=C(O)c1cc[c]([Hg][S]c2ncnc3nc[nH]c23)cc1 ?
Reply: active
